Reported growth values for a set of molecules
System: 786-0 renal
ASSAY NOTES: NCI-60 one-dose screen, 48 h (100 = growth as untreated, 0 = no growth, -100 = all killed)
APPLIED CONDITIONS: 10 µM unless noted
The panel holds about 83,000 compounds, 20% with a hit somewhere; the sample as a whole holds those more often.
Output spec: scalar in %, unitless text.

# count of solved cases: 4
- O=S(=O)(Nc1ncccn1)c1ccc(Nc2ccc3nnc(-c4ccncc4)n3n2)cc1: 103
- Clc1ccc(C2=NN(c3ccccc3)[C@H](c3cn(-c4ccccc4)nc3-c3ccccc3)C2)cc1: 103
- CCOC(=O)c1cn2c3c(cc(F)cc3c1=O)C(CC)c1ccccc1C2 (stereo not drawn): 93.2
- CCCCOC(=O)C1OC(Oc2ccc3c(C)cc(=O)oc3c2)[C@@H](OC(C)=O)C(OC(C)=O)C1OC(C)=O (stereo partly drawn): 98.5

// moving on: another record for growth
## Input Which value of growth has been reported for Cn1c2c(cc(S(=O)(=O)c3ccccc3)c1=O)CCc1c-2cnn1-c1ccccc1Cl in the records?
## Output 102

====

System: HOP-62 NSCLC
ASSAY NOTES: NCI-60 one-dose screen, 48 h
APPLIED CONDITIONS: 10 µM unless noted
Protocol: Growth inhibition of the HOP-62 human Non-Small Cell Lung tumor cell line is measured as a screen for anti-cancer activity. Cells are grown in 96 well plates and exposed to the test compound for 48 hours. Compounds are tested at a single concentration, which is 10^-5 M for most compounds. The reported endpoint is percent growth (GI% or GIPRCNT), where numbers from 0 - 100% represent growth inhibition, and numbers from -100% - 0 represent cell death. […]
Compounds without any hit were thinned out: in the full panel of roughly 83,000, 20% have a hit. The source made the active and inactive calls. The calls were made as follows: active = growth percent below 10; inactive = the rest.
Outcome (select one): label 1 = active, label 0 = inactive

Check out these entries, answers already filled in.
• COc1ccccc1-n1c(SCc2cc(OC)c(OC)c(OC)c2)nc2ccc(Cl)cc2c1=O = label 0
• O=C1c2[nH]cc(CN[C@@H]3CCCN3)c2C(=O)c2c1c(O)c1ccccc1c2O = label 1
• O=S(=O)(Nc1ccccc1Cl)c1ccc(-c2cnc(C3CC3)o2)cc1 = label 0
• O=[N+]([O-])c1ccc2nc(N/N=C/c3ccc(O)cc3)sc2c1 = label 0
• Cc1c(C(=O)Nc2nc(-c3ccccc3)cs2)nnn1-c1cccc2ccccc12 = label 0

Now for another entry.
## Input Which outcome was entered for the compound COc1ccc(C(=O)COc2cccc(/C=C3\CSc4ccc(C)cc4C3=O)c2)cc1 in this test?
## Output label 0

====

System: SW-620 colon
ASSAY NOTES: NCI-60 one-dose screen, 48 h
APPLIED CONDITIONS: 10 µM unless noted
This is part of a sample that, as a whole, favours compounds with a hit. Of some 83,000 tested, about 20% had one in any assay. Activity calls are given as the source filed them. The calls were made as follows: active = growth percent below 10; inactive = the rest.
Form entry, call: pick from active, inactive

Below are worked cases with known answers.
• COc1cc(/C=C/C(=O)C2=C(/C=C/c3ccc(O)c(OC)c3)NC(=O)NC2c2ccc(O)c(OC)c2)ccc1O (stereo not given) = inactive
• Cn1c2c(cc(S(=O)(=O)c3ccccc3)c1=O)CCc1c-2cnn1-c1ccccc1Cl = inactive
• NC1=NC(c2ccccc2OS(=O)(=O)c2ccc(Br)cc2)n2c(nc3ccccc32)N1 (stereo not given) = inactive
• COc1cc2cc(Oc3ccc(NC(=O)Nc4cccc(C(F)(F)F)c4)cc3)c(C)nc2cc1OCCN1CCCCC1 = active
• COc1ccc(/C=N/NC(=O)c2cnn(CC(O)Cc3ccccc3)c2N)cc1OC1CCCC1 (stereo not given) = inactive

## Input Dear colleague, could you share the recorded outcome for Oc1ccc(Cl)cc1CNc1nc2ccccc2[nH]1 when you have a moment?
## Output active

## Input Assay outcome for CCCN1CCN(c2ccc3nc(-c4ccc5nc(-c6ccc(C(F)(F)F)cc6)[nH]c5c4)[nH]c3c2)CC1 : what was it?
## Output active

## Input Outcome? COC(=O)[C@@]12CC[C@@H](C)[C@]3(C[C@@H](c4ccoc4)OC3=O)[C@H]1CC[C@@H]1O[C@@]12C
## Output inactive

## Input // return assay outcome for COCCOC1=C(Cl)C(=O)c2ccccc2C1=O
## Output active

## Input For this compound, state the assay outcome: COc1cc(OCc2cccc(-c3ccc(C(O)c4nccs4)cc3)c2C)cc(OC)c1C=O (stereo not given)
## Output inactive

Sourced from PubChem BioAssay (NCI)
